system: SF-268; test: NCI tumour cell line growth inhibition, 48 h
Active and inactive are the calls of the source. No stated cut-off is given here; in the data, active = GI50 up to about 1.1 µM and inactive = higher.
Lab note: assign the record to one of active, inactive

Recorded results for 6 compounds are shown here.
CC(C)/C=N\n1c(N)c(C#N)c(C#N)c1C(C)C; inactive
Cc1nn(C(=O)Cc2ccccc2)c2c1C(c1ccc3ccccc3c1O)SC(=N)N2 (stereo unspecified); inactive
OCC(O)C(O)C(C=NNc1ncnc2ccc(Br)cc12)=NNc1ncnc2ccc(Br)cc12 (stereo unspecified); inactive
Oc1ccc(N=C2CCC(=C(c3ccccc3)c3ccc(Nc4ccc(O)cc4)cc3)CC2)cc1; inactive
O=[N+]([O-])c1ccc(C2CC(c3ccc(NCc4nc5ccccc5[nH]4)cc3)=NO2)cc1 (stereo unspecified); inactive
Nc1ccc(Cn2ccc3c4c(N)nc(N)nc4ccc32)cc1; active

[in] For CC(=O)OC1COC(N2C(=O)C(=O)c3c(C)cc(Cl)nc32)C(OC(C)=O)C1OC(C)=O (stereo unspecified) , which call appears in the assay record?
[out] inactive

[in] Same thing, different compound: COC(=O)/C(C)=C/[N+](=O)[O-]
[out] inactive

[in] Same thing, different compound: S=C(N1CCN(c2ccccc2)CC1)N1CCN(c2ccccc2)CC1
[out] inactive

[in] Same thing, different compound: [N-]=[N+]=NC[C@H]1OCO[C@H](CN=[N+]=[N-])[C@H]2OCCOCCOc3ccccc3OCCOCCO[C@@H]21
[out] inactive

[in] Same thing, different compound: CCOC(=O)C1(C/C=C\CBr)CCCCCCCCCCC1=O (stereo unspecified)
[out] inactive

[in] Same thing, different compound: COc1ccc2c(c1)C=C([N+](=O)[O-])C(C1OC(C)(C)OC1C1COC(C)(C)O1)O2 (stereo unspecified)
[out] inactive

[in] Same thing, different compound: CCOC(=O)/N=C(\N)SCc1ccccc1
[out] inactive

[in] Same thing, different compound: CC(NC(=O)C(N)CC(=O)O)NC(=O)C1CCC1 (stereo unspecified)
[out] inactive

[in] Same thing, different compound: Cc1ccc(NC(=O)SCCC(=O)O)cc1
[out] inactive

[in] Same thing, different compound: COc1cc2c(cc1C1COc3cc4occc4cc3C1=O)OCO2 (stereo unspecified)
[out] inactive

[in] Same thing, different compound: CC(=O)OCc1nc(C#N)c(N)o1
[out] inactive

* * *

tested on: HOP-62; assay: NCI tumour cell line growth inhibition, 48 h
Activity calls are given as the source filed them. Cut-off read from the data, not from the text of the source: active = GI50 up to about 1.1 µM and inactive = higher.
Lab note: assign the record to one of active, inactive

[in] For CC1=NN(C(=O)CC(=O)Nc2ccccc2Cl)C(=O)C1/N=N\c1ccc(S(=O)(=O)c2ccc(/N=N/C3C(=O)N(C(=O)CC(=O)Nc4ccccc4Cl)N=C3C)cc2)cc1 (stereo not given) , which call appears in the assay record?
[out] inactive

* * *

Observed GI50 for HCT-15, reported per entry below.
Give bare numbers, in µM.

Recorded results for 3 compounds are shown here.
CN(CCNC(=O)c1c[nH]c2c1Cc1ccccc1-2)CCNC(=O)c1c[nH]c2c1Cc1ccccc1-2; 30.9
COc1cc(NP(=O)(Oc2ccccc2)Oc2ccccc2)ccc1Nc1c2ccccc2nc2c1[nH]c1ccccc12; 1.63
COc1ccc(C2Oc3ccc(O)cc3[C@@H]2C)cc1OC (stereo partly drawn); 52.6

Could I get GI50 for every one of these entries?
1. COC(=O)C1=C(O)C(C(=O)OC)[C@@]2(O)[C@@H](C(=O)OC)C(c3ccc(OC(=O)/C(=C/c4ccccc4)c4ccccc4)cc3)C[C@@H]1[C@@H]2C(=O)OC (stereo partly drawn)
2. S=C1SSC2N=CC=CC12 (stereo not drawn)

[out]
7.18
57.8

Could I get GI50 for every one of these entries?
1. CO[C@H]1C=CO[C@@]2(C)Oc3c(C)c(O)c4c(O)c(c(CN5CCN(C)CC5)c(O)c4c3C2=O)NC(=O)/C(C)=C\C=C[C@H](C)[C@H](O)C(C)[C@@H](O)C(C)[C@H](OC(C)=O)[C@@H]1C (stereo partly drawn)
2. CC(C)=CC1CC(=[N+]=[N-])C(=O)C1(C)C (stereo not drawn)
3. CCC(C)[C@@H](NC1=C(Cl)C(=O)c2c(O)ccc(O)c2C1=O)C(=O)OC (stereo partly drawn)
4. CC(C)/C=C1\CCC(CN2CCOCC2)C1=O (stereo not drawn)
5. C[O+]=C1C=CC(=C2SC(c3ccccc3)(c3ccccc3)c3ccccc32)C=C1.[O-][Cl+3]([O-])([O-])[O-]
6. CN(C)CCNc1ccc2c(=O)n(CCN(C)C)c(=O)n3c4ccccc4c(=O)c1c23
7. CN(O)C(=O)c1ccc(OCc2cccc(Cl)c2)cc1
8. O=C1O/C(=C\C=C\CO)C=C1/C=C/CO [LISSOCLINOLIDE]

[out]
[30.8, 86.5, 2.94, 5.85, 10.9, 0.0815, 3.52, 12.3]

Could I get GI50 for every one of these entries?
1. [O-]c1c2c(nn1-c1ccc(F)cc1)c1ccccc1c[n+]2Cc1ccccc1
2. CCOC(=O)/C=C(\C)Sc1cc(O)c2ccccc2c1O
3. CCC1=C(c2ccc(OC)cc2)CC[C@]2(CCNC2=O)[C@@H]1C
4. OCCNCNc1nc(NCNCCO)nc(N(CNCCO)CNCCO)n1
5. OC/C=C/[C@H](OCc1ccccc1)[C@H](/C=C/CO)OCc1ccccc1

[out]
1. 0.581
2. 17.4
3. 28.7
4. 25.2
5. 34.8

* * *

test system: UO-31; test: NCI tumour cell line growth inhibition, 48 h
Activity calls are given as the source filed them. No stated cut-off is given here; in the data, active = GI50 up to about 1.1 µM and inactive = higher.
MEASURED_ATTRIBUTE: GI50

Recorded results for 3 molecules are shown here.
Cc1ccc([N+](=O)[O-])cc1S(=O)(=O)Nc1ccc(C2=NOC(c3ccccc3)C2)cc1 (stereo not drawn); 18.2 µM (inactive)
CC(NNC(=O)c1cc[n+]([BH2-]C#N)cc1)c1cccc(F)c1 (stereo not drawn); > 100 µM (inactive)
COC(=O)C1=NN2c3ccccc3CN([C@@H](C)c3ccccc3)C(=O)[C@H]2[C@@H]1C; 56 µM (inactive)

Could I get GI50 for every one of these entries?
1. CCC/C=C/c1cc2c(cc1O)CC[C@@H]1[C@@H]2CC[C@]2(C)[C@@H](O)CC[C@@H]12
2. CCN(CC)C(=S)SNCCc1ccc(S(N)(=O)=O)cc1
3. O=C(CCC(=O)Nc1cccc(Cl)c1)CC(=O)c1ccc(Cl)cc1
4. CCOC(=O)/C(Br)=C1/OC(=O)c2ccccc2-c2ccccc21.CCOC(=O)/C(Br)=C1\OC(=O)c2ccccc2-c2ccccc21
5. CSc1ccc(-c2cc(-c3nc4ccccc4[nH]3)no2)cc1
6. Cc1ccc(C2=Nn3c(nc4sc(C)c(C)c4c3=O)SC2)cc1
7. COC1OC(C)C(OC(=O)C(C)(C)C)C(OS(=O)(=O)c2ccc(C)cc2)C1OS(=O)(=O)c1ccc(C)cc1 (stereo not drawn)
8. O=C(/C=C/c1ccccc1)c1ccccc1

[out]
1: 16.3 µM (inactive); 2: 13.1 µM (inactive); 3: > 100 µM (inactive); 4: 39.8 µM (inactive); 5: 13.1 µM (inactive); 6: > 100 µM (inactive); 7: > 100 µM (inactive); 8: > 10 µM (inactive)

* * *

I'd appreciate it if you could supply GI50 values for the items below.
tested on: LOX IMVI; experiment: NCI tumour cell line growth inhibition, 48 h
The source made the active and inactive calls. Cut-off read from the data, not from the text of the source: active = GI50 up to about 1.1 µM and inactive = higher.

Could I get GI50 for every one of these entries?
1. Cc1cc(N(CCC#N)CCC#N)ccc1/C=C1\SC(=S)NC1=O
2. CC(C)/C=C1\CCC(CN2CCOCC2)C1=O (configuration not stated)
3. c1csc(-c2ccsc2-c2ccsc2)c1
4. CC(C)=CC1CC(=[N+]=[N-])C(=O)C1(C)C (configuration not stated)
5. N#CCc1nc(Cc2ccccc2)n[nH]1

[out]
1: > 100 µM (inactive); 2: 24.4 µM (inactive); 3: > 100 µM (inactive); 4: > 75.7 µM (inactive); 5: > 100 µM (inactive)

Could I get GI50 for every one of these entries?
1. CC(C)c1c(O)ccc2c1CCC1C(C)(C)CCCC21C (configuration not stated)
2. CC(C)C1OC(=O)C=C1Sc1ccccc1 (configuration not stated)

[out]
1: 17.1 µM (inactive); 2: > 100 µM (inactive)

* * *

test system: KM12; assay: NCI tumour cell line growth inhibition, 48 h
Active and inactive are the calls of the source. No stated cut-off is given here; in the data, active = GI50 up to about 1.1 µM and inactive = higher.
I'd appreciate it if you could supply GI50 values for the items below.

Recorded results for 2 compounds are shown here.
O=[N+]([O-])c1ccc(/C=C/c2ccc(/N=N/c3ccc(/C=C/c4ccc([N+](=O)[O-])cc4S(=O)(=O)O)c(S(=O)(=O)O)c3)cc2S(=O)(=O)O)c(S(=O)(=O)O)c1; > 100 µM (inactive)
O=C1c2ccccc2C(=O)c2c(Nc3cc4c5c(ccc6c7ccc8c9c(cc(Nc%10cccc%11c%10C(=O)c%10ccccc%10C%11=O)c(c3c56)c97)-c3ccccc3C8=O)C(=O)c3ccccc3-4)cccc21; > 100 µM (inactive)

Could I get GI50 for every one of these entries?
1. C/C(CC(=O)Nc1cc(Cl)c(Cl)cc1Cl)=N\NC(N)=O
2. CC[C@@H](C)[C@H]([C@H](CC(=O)N1CCC[C@@H]1[C@@H](OC)[C@H](C)C(=O)N[C@H](Cc1ccccc1)c1nccs1)OC)N(C)C(=O)[C@H](NC(=O)[C@@H](C(C)C)N(C)C)C(C)C
3. CCOC(=O)N/N=C(\Cc1ccccc1)OCC
4. CC(C)(C)OC(=O)CN1CCNCCN(CC(=O)OC(C)(C)C)CCNCC1
5. CN(CCNC(=O)c1c[nH]c2c1Cc1ccccc1-2)CCNC(=O)c1c[nH]c2c1Cc1ccccc1-2
6. C[N+](C)(N)Cc1csc(-c2ccc(Cl)cc2)n1
7. O=c1c2ccccc2nc(-c2cccc(Cl)c2)n1NC1OC(CO)C(O)C(O)C1O (stereo not drawn)

[out]
1: > 100 µM (inactive); 2: 1.67e-05 µM (active); 3: > 100 µM (inactive); 4: 98.9 µM (inactive); 5: 33.3 µM (inactive); 6: > 100 µM (inactive); 7: > 100 µM (inactive)

Could I get GI50 for every one of these entries?
1. CCC[N+](C)(C)CCCNC(=O)c1c(O)c2ccccc2[nH]c1=O
2. Cc1c(N)nc(C2CC(=O)N2CC(N)C(N)=O)nc1C(=O)NC(C(=O)NC(C)C(O)C(C)C(=O)NC(C(=O)NCCc1nc(-c2nc(C(=O)NCCNCC(C)O)cs2)cs1)C(C)O)C(OC1OC(CO)C(O)C(O)C1OC1OC(CO)C(O)C(OC(N)=O)C1O)c1c[nH]cn1 (stereo not drawn)

[out]
["> 100 µM (inactive)", "19.9 µM (inactive)"]

Could I get GI50 for every one of these entries?
1. O=C(O)CNCP(=O)(O)O [GLYPHOSATE]
2. C1CN(c2nc3c(nnc4nc(N5CCOCC5)sc43)s2)CCO1
3. Oc1ccccc1/C=N/c1ccc(-c2nc3ccccc3s2)cc1
4. O=C1c2ccccc2S(=O)(=O)c2ccccc21

[out]
1. > 100 µM (inactive)
2. > 100 µM (inactive)
3. 22 µM (inactive)
4. > 100 µM (inactive)

Could I get GI50 for every one of these entries?
1. NNC(=O)c1c(SCc2ccccc2)nc2c3ccccc3ccn12
2. CN(CC(=O)O)Cc1oc(CO)cc(=O)c1O

[out]
22.6 µM (inactive)
> 100 µM (inactive)

Could I get GI50 for every one of these entries?
1. CN(C)c1ccc(C=c2c3ccccc3n3c2c2ccccc2[n+]3C)cc1
2. CCCCCCCCCCCOC(=S)NC(C)C
3. COC1/C=C/O[C@@]2(C)Oc3c(C)c(O)c4c(O)c(cc(O)c4c3C2=O)NC(=O)/C(C)=C\C=C\[C@H](C)C(O)[C@@H](C)[C@@H](O)[C@@H](C)[C@H](OC(C)=O)[C@@H]1C (stereo partly drawn)
4. Cn1c2c3ccc(Cl)cc3nc-2c(Cl)c2ccccc21
5. Cn1c2ccccc2n2c(=O)c(-c3ccc(O)cc3)nnc12
6. Brc1ccc2c([C@H]3CN[C@@H](c4c[nH]c5cc(Br)ccc45)CN3)c[nH]c2c1

[out]
1. 1.01 µM (active)
2. 19.7 µM (inactive)
3. 27.2 µM (inactive)
4. 16.9 µM (inactive)
5. > 100 µM (inactive)
6. 1.7 µM (inactive)

Could I get GI50 for every one of these entries?
1. CC1(C)OC2C(CO)OC(N/C(=N/C#N)Oc3ccccc3)C2O1 (stereo not drawn)
2. CC(C)/C=C1\CCC(CN2CCOCC2)C1=O (stereo not drawn)
3. Cc1nn(C(=O)Cc2ccccc2)c2c1C(c1ccc3ccccc3c1O)SC(=N)N2 (stereo not drawn)
4. O=C(O)c1cnc2cc(OCc3ccccc3)ccc2c1O
5. O=S(=O)(SC1=NCCN1)c1cccc2ccccc12
6. CC1(c2nc3cc(Cl)c(Cl)cc3[nH]2)CCC(CO)C(C)(C)O1 (stereo not drawn)

[out]
1: > 100 µM (inactive); 2: 10.5 µM (inactive); 3: > 100 µM (inactive); 4: 18.5 µM (inactive); 5: 17.9 µM (inactive); 6: 15.1 µM (inactive)

Could I get GI50 for every one of these entries?
1. CCOCC(=O)N[C@H]1CCc2cc(OC(=O)COCC)c(OC)c(OC)c2-c2ccc(SC)c(=O)cc21
2. CCOC(=O)/C(Br)=C1/OC(=O)c2ccccc2-c2ccccc21.CCOC(=O)/C(Br)=C1\OC(=O)c2ccccc2-c2ccccc21

[out]
1: 0.00708 µM (active); 2: 14.8 µM (inactive)

Could I get GI50 for every one of these entries?
1. CC(=O)N/N=C1\CC(C)(C)C2CCC1C2 (stereo not drawn)
2. Cc1ccc(S(=O)(=O)NC(C(=O)O)C(C)C)cc1 (stereo not drawn)

[out]
1. > 100 µM (inactive)
2. > 100 µM (inactive)
